test system: A549; assay: Antiproliferative activity against human A549 cells assessed as growth inhibition after 48 hrs by MTT assay; format: functional, cell-based; details: A549, 48 h
Experimental readout: IC50 (µM)

Examples with their reported IC50 follow.
# Molecule smiles, Assay system, Readout units, Reading
rows = [
    ("COc1cc(NC(=O)Nc2ccccn2)cc(-c2cccnc2)c1OC", "A549", "µM", 13.5),
    ("Cn1cnc(-c2cc(NC(=O)Nc3ccncc3)cc(C(F)(F)F)c2)c1", "A549", "µM", 39.4),
    ("O=C(Nc1ccccn1)Nc1cc(-c2cncnc2)ccc1OC(F)(F)F", "A549", "µM", 15.2),
]

(I) O=C(Nc1ccncc1)Nc1cc(-c2cccnc2)ccc1OC(F)(F)F
(II) O=C(Nc1ccccn1)Nc1cc(-c2cccnc2)ccc1OC(F)(F)F
Determine, for I and II , which has the greater value of IC50. To answer, give the label that identifies your chosen option. I
(I: 39.8 µM, II: 19 µM)

(1) COc1ccc(-c2ccc(OC(F)(F)F)c(NC(=O)Nc3nccs3)c2)cn1
(2) COc1cc(NC(=O)Nc2ccccn2)cc(-c2c[nH]cn2)c1OC
(3) COc1ccc(-c2ccc(OC(F)(F)F)c(NC(=O)Nc3ccccn3)c2)cn1
(4) O=C(Nc1cc(-c2cccnc2)cc(C(F)(F)F)c1)Nc1nccs1
Order the records, beginning with the lowest IC50 and ending with the highest. Please, when replying, give the labels in the order that was requested. 2, 1, 4, 3

###

Data export: IC50 values recorded with Vascular endothelial growth factor receptor 2 (Homo sapiens).
Sequence (P35968 whole entry): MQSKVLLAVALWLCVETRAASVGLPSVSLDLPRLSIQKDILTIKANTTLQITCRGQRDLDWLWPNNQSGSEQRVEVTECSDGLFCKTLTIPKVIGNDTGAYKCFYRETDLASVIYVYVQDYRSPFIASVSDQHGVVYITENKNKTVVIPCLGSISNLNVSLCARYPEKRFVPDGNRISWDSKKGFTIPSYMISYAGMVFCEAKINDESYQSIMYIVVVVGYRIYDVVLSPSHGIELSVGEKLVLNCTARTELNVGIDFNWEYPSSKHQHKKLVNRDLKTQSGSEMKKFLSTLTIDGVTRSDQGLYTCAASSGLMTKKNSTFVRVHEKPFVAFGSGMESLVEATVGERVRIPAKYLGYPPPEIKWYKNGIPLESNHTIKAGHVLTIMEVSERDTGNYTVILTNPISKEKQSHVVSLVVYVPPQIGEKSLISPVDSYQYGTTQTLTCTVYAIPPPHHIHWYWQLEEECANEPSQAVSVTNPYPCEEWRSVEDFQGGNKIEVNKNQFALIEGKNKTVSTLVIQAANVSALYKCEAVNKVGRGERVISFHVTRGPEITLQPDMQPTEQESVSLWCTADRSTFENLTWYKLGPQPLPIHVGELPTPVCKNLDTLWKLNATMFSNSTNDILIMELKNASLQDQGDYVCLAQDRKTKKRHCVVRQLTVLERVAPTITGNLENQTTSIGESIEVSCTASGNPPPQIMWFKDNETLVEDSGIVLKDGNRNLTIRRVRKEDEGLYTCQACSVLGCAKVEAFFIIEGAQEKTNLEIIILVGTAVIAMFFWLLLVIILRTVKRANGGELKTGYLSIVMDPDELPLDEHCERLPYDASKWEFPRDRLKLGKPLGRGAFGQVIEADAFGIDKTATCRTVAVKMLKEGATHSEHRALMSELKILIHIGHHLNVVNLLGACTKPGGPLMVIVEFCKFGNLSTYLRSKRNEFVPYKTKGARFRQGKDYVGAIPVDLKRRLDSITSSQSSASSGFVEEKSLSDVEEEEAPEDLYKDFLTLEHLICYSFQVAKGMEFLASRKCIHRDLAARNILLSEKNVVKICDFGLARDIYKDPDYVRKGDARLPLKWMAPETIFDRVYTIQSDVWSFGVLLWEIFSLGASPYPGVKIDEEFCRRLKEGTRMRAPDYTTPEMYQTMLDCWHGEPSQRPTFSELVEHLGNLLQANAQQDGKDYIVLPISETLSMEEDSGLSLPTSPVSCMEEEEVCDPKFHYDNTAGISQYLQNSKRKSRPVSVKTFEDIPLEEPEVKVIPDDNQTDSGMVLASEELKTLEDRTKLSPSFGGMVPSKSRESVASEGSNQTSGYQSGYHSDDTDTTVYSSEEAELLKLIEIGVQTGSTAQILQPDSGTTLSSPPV
Experimental readout: IC50 (nM)

Worked examples follow.
# Molecule smiles, Readout units, IC50
data = [
    ("O=C(Nc1cc(-c2cncnc2)cc(C(F)(F)F)c1)Nc1nccs1", "nM", 86.7),
    ("O=C(Nc1ccncc1)Nc1cc(-c2cccnc2)cc(C(F)(F)F)c1", "nM", 93),
    ("COc1cc(NC(=O)Nc2nccs2)cc(-c2cn(C)cn2)c1OC", "nM", 420),
]

(A) O=C(Nc1ccncc1)Nc1cc(-c2cncnc2)cc(C(F)(F)F)c1
(B) O=C(Nc1ccncc1)Nc1cc(-c2cccnc2)ccc1OC(F)(F)F
Form field 'greater IC50' accepts A or B ; which applies? Answer by stating the label of the chosen item. B

###

target: Epidermal growth factor receptor (Homo sapiens, UniProt P00533)
Sequence (P00533 whole entry): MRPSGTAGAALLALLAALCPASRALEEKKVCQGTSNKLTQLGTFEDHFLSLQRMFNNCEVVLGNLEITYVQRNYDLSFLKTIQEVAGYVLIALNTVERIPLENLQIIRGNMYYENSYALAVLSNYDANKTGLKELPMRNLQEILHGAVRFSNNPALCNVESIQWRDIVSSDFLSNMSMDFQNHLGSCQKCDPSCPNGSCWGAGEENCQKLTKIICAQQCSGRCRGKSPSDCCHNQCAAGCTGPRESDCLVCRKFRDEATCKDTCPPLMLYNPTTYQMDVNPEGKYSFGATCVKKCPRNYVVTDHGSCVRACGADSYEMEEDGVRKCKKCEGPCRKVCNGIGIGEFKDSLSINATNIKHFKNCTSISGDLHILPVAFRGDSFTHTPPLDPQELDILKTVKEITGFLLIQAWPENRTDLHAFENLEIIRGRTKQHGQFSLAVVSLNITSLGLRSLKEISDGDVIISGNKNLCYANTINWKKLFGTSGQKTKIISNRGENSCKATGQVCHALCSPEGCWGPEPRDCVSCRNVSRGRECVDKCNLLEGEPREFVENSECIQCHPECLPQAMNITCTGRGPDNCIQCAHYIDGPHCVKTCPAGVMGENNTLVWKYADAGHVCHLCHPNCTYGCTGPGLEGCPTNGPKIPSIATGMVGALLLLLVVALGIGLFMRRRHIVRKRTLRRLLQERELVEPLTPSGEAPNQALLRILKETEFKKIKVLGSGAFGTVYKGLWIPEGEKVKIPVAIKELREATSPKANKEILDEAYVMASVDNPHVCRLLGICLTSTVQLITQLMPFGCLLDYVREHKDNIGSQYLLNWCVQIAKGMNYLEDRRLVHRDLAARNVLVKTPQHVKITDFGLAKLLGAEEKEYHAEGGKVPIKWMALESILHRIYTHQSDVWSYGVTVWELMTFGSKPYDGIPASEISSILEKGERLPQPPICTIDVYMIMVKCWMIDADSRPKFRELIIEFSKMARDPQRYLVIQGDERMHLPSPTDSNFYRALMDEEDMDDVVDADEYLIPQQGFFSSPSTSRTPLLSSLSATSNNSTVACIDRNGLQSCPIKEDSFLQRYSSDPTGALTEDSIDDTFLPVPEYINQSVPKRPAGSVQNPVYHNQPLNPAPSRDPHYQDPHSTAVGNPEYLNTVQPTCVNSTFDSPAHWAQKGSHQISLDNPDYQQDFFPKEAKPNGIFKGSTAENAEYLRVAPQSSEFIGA
Experimental readout: IC50 (nM)

# count of solved cases: 2
# Molecule smiles, Readout units, Reading
measured = [
    ("O=C(Nc1ccncc1)Nc1cc(-c2cccnc2)ccc1OC(F)(F)F", "nM", 97.2),
    ("O=C(Nc1nccs1)Nc1cc(-c2cncnc2)ccc1OC(F)(F)F", "nM", 71.7),
]

(P) COc1cc(NC(=O)Nc2ccncc2)cc(-c2cccnc2)c1OC
(Q) O=C(Nc1cc(-c2cncnc2)cc(C(F)(F)F)c1)Nc1nccs1
I'm curious whether P or Q has the smaller IC50 number. Which is it? Indicate which entry you chose by stating its label. Q

###

Listed here: compounds with reported IC50 for UniProtKB P35968.

Some compounds with recorded IC50:
# Molecule smiles, Assay system, IC50
data = [
    ("COc1ccc(-c2ccc(OC(F)(F)F)c(NC(=O)Nc3ccncc3)c2)cn1", "UniProtKB P35968", "> 500 nM"),
    ("COc1ccc(-c2cc(NC(=O)Nc3nccs3)cc(C(F)(F)F)c2)cn1", "UniProtKB P35968", "> 500 nM"),
]

We next turn to a different compound, shown below.
Tell me reported IC50 for "COc1ccc(-c2cc(NC(=O)Nc3ccncc3)cc(OC)c2OC)cn1" , tested with UniProtKB P35968. > 500 nM
